Source: patent US20230012273A1

# targetEntity: T1, Human SIRPαV1 (NP_542970.1), Extracellular Domain + His-Tag (human, UniProt P78324 31-373)
# T1 construct: also called huSIRPαV1; hSIRPαV1; not shown: His-Tag
# T1 sequence (P78324 other isoform, or with tags, fused parts or gaps): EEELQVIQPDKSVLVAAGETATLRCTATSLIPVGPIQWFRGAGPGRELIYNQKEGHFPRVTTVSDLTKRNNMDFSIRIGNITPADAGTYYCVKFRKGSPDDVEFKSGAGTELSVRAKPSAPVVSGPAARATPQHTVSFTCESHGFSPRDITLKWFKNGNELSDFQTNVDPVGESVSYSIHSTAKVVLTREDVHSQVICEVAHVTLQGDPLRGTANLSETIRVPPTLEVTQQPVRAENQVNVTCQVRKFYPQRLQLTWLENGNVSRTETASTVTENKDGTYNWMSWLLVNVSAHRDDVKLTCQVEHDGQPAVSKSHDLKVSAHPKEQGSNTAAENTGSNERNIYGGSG
# experimentDescription: SPR, antibody captured on Protein A/G, ECD-His analyte, 1:1 fit
Overview of reported kon across a group of binders:
Write it as a number; the unit M⁻¹ s⁻¹ goes unstated.

# annotated cases, reported kon shown
Antibody A14 (antibody, human IgG1, kappa, L234A L235A, V domains shown) VH: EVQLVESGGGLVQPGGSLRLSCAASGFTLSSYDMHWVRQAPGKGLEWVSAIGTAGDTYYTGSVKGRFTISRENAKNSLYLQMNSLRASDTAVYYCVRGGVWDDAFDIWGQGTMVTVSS VL: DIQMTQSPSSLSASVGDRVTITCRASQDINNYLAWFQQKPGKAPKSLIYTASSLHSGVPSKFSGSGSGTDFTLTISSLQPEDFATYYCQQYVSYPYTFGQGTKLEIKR : 488000
Antibody E9 (antibody, human IgG1, kappa, L234A L235A, V domains shown) VH: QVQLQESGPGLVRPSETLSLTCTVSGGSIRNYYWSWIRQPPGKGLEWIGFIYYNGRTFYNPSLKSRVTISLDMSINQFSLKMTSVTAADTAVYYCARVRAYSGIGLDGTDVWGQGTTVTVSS VL: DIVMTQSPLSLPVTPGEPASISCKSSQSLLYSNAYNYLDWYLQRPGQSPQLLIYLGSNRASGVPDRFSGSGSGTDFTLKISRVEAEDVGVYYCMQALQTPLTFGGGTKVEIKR : 518000

# evaluate next
Lookup result for Antibody A16 (antibody, human IgG1, kappa, L234A L235A, V domains shown) VH: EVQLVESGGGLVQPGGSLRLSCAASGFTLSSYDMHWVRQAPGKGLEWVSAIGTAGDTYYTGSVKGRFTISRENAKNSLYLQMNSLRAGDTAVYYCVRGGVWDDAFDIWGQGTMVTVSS VL: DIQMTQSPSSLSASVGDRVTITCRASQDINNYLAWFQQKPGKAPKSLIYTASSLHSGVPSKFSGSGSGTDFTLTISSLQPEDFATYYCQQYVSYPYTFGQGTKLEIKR ; measured kon: 472000
